testMethodNotes: Effect of concentration on the stability of the solution (purity over time)
assayContext: 7 wt %; in water at 25° C.
outcomeMeasure: Purity at Day 21 (%)
Unit % implied. Number only.

Worked cases, answers included:
- compound: "CCN(CC)CCOC(=O)Cc1sc(-c2ccccc2)nc1-c1ccc(Cl)cc1.Cl"
  outcomeMeasure: "Purity at Day 21"
  valueReported: 97.7
- compound: "CCN(CC)CCOC(=O)Cc1c(C)n(C(=O)c2ccc(Cl)cc2)c2ccc(OC)cc12.Cl"
  outcomeMeasure: "Purity at Day 21"
  valueReported: 97.7

Recorded Purity at Day 21 of CCN(CC)CCOC(=O)C(C)c1ccc2oc(-c3ccc(Cl)cc3)nc2c1.Cl (stereo not shown) , please.
97.8

Next up: `CCN(CC)CCOC(=O)CCc1nc(-c2ccccc2)c(-c2ccccc2)o1.Cl`
97.7

###

Listed here: items and their measured Purity at hr 0.
testMethodNotes: Effect of concentration on the stability of the solution (purity over time)
assayContext: 10 wt %; in water at 25° C.
Answer in %, number only, no unit symbol.

- molecule: "CCN(CC)CCOC(=O)C(C)c1ccc2oc(-c3ccc(Cl)cc3)nc2c1.Cl (stereo not shown)"
  u: "%"
  Purity at hr 0: 98.5
- molecule: "CCN(CC)CCOC(=O)CCc1nc(-c2ccccc2)c(-c2ccccc2)o1.Cl"
  u: "%"
  Purity at hr 0: 98.8
- molecule: "CCN(CC)CCOC(=O)CCc1ccc2cc(OC)ccc2c1.Cl"
  u: "%"
  Purity at hr 0: 98.5
- molecule: "CCN(CC)CCOC(=O)Cc1sc(-c2ccccc2)nc1-c1ccc(Cl)cc1.Cl"
  u: "%"
  Purity at hr 0: 99.2
- molecule: "CCN(CC)CCOC(=O)Cc1ccc(C(=O)c2ccc(C)cc2)n1C.Cl"
  u: "%"
  Purity at hr 0: 98.2

Quick one: Purity at hr 0 for `CCN(CC)CCOC(=O)Cc1c(C)n(C(=O)c2ccc(Cl)cc2)c2ccc(OC)cc12.Cl` ?
98.5

Another molecule to check: CCN(CC)CCOC(=O)CC1=C(C)C(=Cc2ccc([S+](C)[O-])cc2)c2ccc(F)cc21.Cl (stereo not shown)
97.5

###

testMethodNotes: Effect of temperature (and pH) on the stability of the solution (purity)
Assay type: physicochemical
assayContext: 7% solution in water, pH 2.0, day 21, 40° C.
outcomeMeasure: Purity(%) at day 21 (40° C.)
Express your answer in %, writing the number without its unit.

Solved cases (3 shown):
- compoundString: "CCN(CC)CCOC(=O)CCc1nc(-c2ccccc2)c(-c2ccccc2)o1.Cl"
  Purity(%) at day 21 (40° C.): 17.6
- compoundString: "CCN(CC)CCOC(=O)COc1nn(Cc2ccccc2)c2ccccc12.Cl"
  Purity(%) at day 21 (40° C.): 19.6
- compoundString: "CCN(CC)CCOC(=O)COC(=O)Cc1c(C)n(C(=O)c2ccc(Cl)cc2)c2ccc(OC)cc12.Cl"
  Purity(%) at day 21 (40° C.): 26.7

The record that follows has no Purity(%) at day 21 (40° C.) shown yet.
Give its Purity(%) at day 21 (40° C.) value. Item: `CCN(CC)CCOC(=O)Cc1ccc(C(=O)c2ccc(C)cc2)n1C.Cl`
20.6

These measurements were taken from patent US20230157952A1.
